These entries and their values trace back to PubChem BioAssay (NCI).

- Tested on: DLD-1 colon
- method.notes: NCI tumour cell line growth inhibition, 48 h
Consider the following compounds; for each one, report its TGI.

Solved cases below.
> print(dat)
                                   compound  study.target  readout    result
1        O=C1CCC(c2ccccc2)=NN1c1nc2ccccc2s1   DLD-1 colon      TGI  > 100 µM
2  CC(C)c1ccc(O)c(Cc2cc(C(C)C)cc(Cc3cc(C(C)C)ccc3O)c2O)c1   DLD-1 colon      TGI   4.15 µM
3   [CH3][Sn]([CH3])([CH3])[S]C(=S)N1CCOCC1   DLD-1 colon      TGI   5.54 µM
4          C=CCNC(=S)NNC(=O)c1c(C)nc2sccn12   DLD-1 colon      TGI  > 100 µM
5  Nc1nc(SCc2ccccc2Cl)c2ncn(C3OC(CO)C(O)C3O)c2n1 (configuration not stated)   DLD-1 colon      TGI  > 100 µM
6  CCOc1ccc(NC(=O)CC2SC(=Nc3ccc(C)cc3)NC2=O)cc1 (configuration not stated)   DLD-1 colon      TGI  > 100 µM

For the next question, use this compound.
Lookup: Return TGI (reported value) for this compound: Cc1cc(NCCCCCCCNc2cc(C)nc3cc(N)ccc23)c2ccc(N)cc2n1
Found: > 100 µM

====

- System: NCI/ADR-RES ovarian
- method.notes: NCI tumour cell line growth inhibition, 48 h
Consider the following molecules; for each one, report its TGI.

Solved cases below.
molecule	result
CC1(C)CC(O)CC(C)(C)N1O	> 100 µM
S=c1ncc(-c2cncc(-c3cnc(=S)[nH]c3)n2)c[nH]1	> 100 µM
NCCCN(CCCCN(CCCN)CCCc1ccccc1)CCCc1ccccc1	43.1 µM
CC(=O)O[C@H]1[C@@H](N2CCOCC2)C[C@H]2[C@@H]3CC=C4C[C@@H](N5CCCC5)CC[C@]4(C)[C@H]3CC[C@@]21C	> 100 µM
CCCCNc1ncnc2c1cnn2-c1ccccc1	5.26 µM

Hey, can you go through the list below and give me TGI for every item?
1. Cc1ccc(C(=O)N/N=C(\N=Nc2ccc([N+](=O)[O-])cc2)c2ccc(N(CCC#N)CCC#N)cc2C)cc1
2. C=CCOCC1C2CCC3(OCCO3)C21 (centres undefined)
3. CC1[C@@]2(CCC(C)(C)O2)O[C@@H]2C=C3C4CCC5Cc6nc7c(nc6C[C@@]5(C)C4C[C@H](O)[C@@]3(C)[C@]12O)CC1CCC2C3=C[C@H]4O[C@@]5(O[C@@](C)(CO)C[C@@H]5O)C(C)[C@@]4(O)[C@]3(C)[C@@H](O)CC2[C@]1(C)C7 (some centres undefined)
4. Clc1ccc(-c2cn3c(nc4ccccc43)c(-c3ccccc3)n2)cc1

Found:
> 100 µM
> 100 µM
2.05 µM
> 100 µM

====

- Test system: RXF 393 renal
- method.notes: NCI tumour cell line growth inhibition, 48 h; in the data active = GI50 below about 0.43 µM; inactive = the rest
Parameter call: string, one of active, inactive

> print(dat)
                                   compound   study.target       cat
1  Nc1ncn([C@H]2CC(O)[C@@H](CO)S2)c(=O)n1 (stereo not given in full)  RXF 393 renal  inactive

Lookup: Answer briefly: the call reported for COc1cc(C2CC(c3ccccc3)=NN2C=O)ccc1Oc1ccnc2cc(Cl)ccc12 (stereo not given) in this assay.
Found: inactive

Lookup: Answer briefly: the call reported for COc1cc(N=Nc2cc(Cc3ccc(N(C)C)cc3)c(N)cc2N(C)C)c2ncccc2c1 in this assay.
Found: inactive

Lookup: Answer briefly: the call reported for COc1ccc2nc3ccccc3c(NCCNCCO)c2c1 in this assay.
Found: inactive

Lookup: Answer briefly: the call reported for COC(=O)c1c(C)nc(C)c2c1C(=O)C(Br)=C(NCc1ccccc1)C2=O in this assay.
Found: inactive

Lookup: Answer briefly: the call reported for Nc1nc(SCc2ccccc2CCl)c2[nH]cnc2n1 in this assay.
Found: inactive

Lookup: Answer briefly: the call reported for Clc1ccc2c(NCCNc3nc(N4CCOCC4)nc4ccccc34)ccnc2c1 in this assay.
Found: inactive

Lookup: Answer briefly: the call reported for S=c1ssnc1-c1cc2ccccc2o1 in this assay.
Found: inactive

Lookup: Answer briefly: the call reported for Nc1ccc(CC[C@H]2CCC/C=C/[C@@H]3C[C@H](O)C[C@H]3[C@H](O)/C=C/C(=O)O2)cc1 in this assay.
Found: active

Lookup: Answer briefly: the call reported for CCN(CC)c1ccc(/C=N/NC(=O)Cc2ccc(Nc3ccnc(C(F)(F)F)c3)cc2)c(O)c1 in this assay.
Found: inactive
